Task for the reader: assign each of the following compounds its reported Selectivity of chymase inhibitors: DPPIV.
- system-tested: UniProt:P27487
- measurement-notes: Selectivity of chymase inhibitors against DPPIV
- Format: biochemical
- study-conditions: ratio of Ki enzyme/Ki chymase
Just the number, please, no unit after it.

[in] API: value(readout=Selectivity of chymase inhibitors: DPPIV, system=UniProt:P27487) for record `O=S(=O)(/C=C/c1cccc(Cl)c1)N(Cc1cccc(F)c1)c1cccc(Cl)c1`
[out] 70

[in] Quick one: `O=S(=O)(/C=C/c1cccc(Cl)c1)N(Cc1ccc(Cl)cc1)c1cccc(Cl)c1`
[out] 80

[in] Next compound: `O=S(=O)(/C=C/c1cccc(Cl)c1)N(Cc1cccc(Br)c1)c1cccc(Cl)c1`
[out] 40

[in] Next: `O=S(=O)(/C=C/c1cccc(Cl)c1)N(Cc1cccc(Cl)c1)c1cccc(Cl)c1`
[out] 37

###

- system-tested: DPPIV (Homo sapiens)
- measurement-notes: Selectivity of chymase inhibitors against DPPIV
- Assay type: biochemical
- study-conditions: ratio of Ki enzyme/Ki chymase
Task for the reader: assign each of the following compounds its reported Selectivity of chymase inhibitors: DPPIV.

[in] Hi! What's the reported Selectivity of chymase inhibitors: DPPIV for O=S(=O)(/C=C/c1cccc(Br)c1)N(Cc1ccccc1)c1cccc(Cl)c1 [ef-rs-03-015-P2] on DPPIV (Homo sapiens)?
[out] >100

[in] Now give it for O=S(=O)(/C=C/c1cccc(Cl)c1)N(Cc1ccsc1)c1cccc(Cl)c1 [ef-rs-03-038-P1] too.
[out] 34

[in] Could you do the same for `O=S(=O)(/C=C/c1cccc(Cl)c1)N(Cc1cccc(Cl)c1)c1cccc(OCc2cccc(Cl)c2)c1` , please?
[out] 10

###

Please provide measured Selectivity of chymase inhibitors: Thrombin for the entries that follow.
- system-tested: UniProtKB P00734
- measurement-notes: Selectivity of chymase inhibitors against thrombin
- Type: biochemical
- study-conditions: ratio of Ki enzyme/Ki chymase

[in] Name the reported Selectivity of chymase inhibitors: Thrombin value associated with the molecule O=S(=O)(/C=C/c1cccc(Cl)c1)N(Cc1cccc(Cl)c1)c1cccc(OCc2cccc(Cl)c2)c1 [ef-rs-08-052]
[out] >75

[in] Queued: O=S(=O)(/C=C/c1cccc(Cl)c1)N(Cc1cccc(Cl)c1)c1cccc(Cl)c1 [ef-rs-03-075]
[out] >320

[in] And then O=S(=O)(/C=C/c1cccc(Cl)c1)N(Cc1ccc(Cl)c(Cl)c1)c1cccc(Cl)c1 [ef-rs-08-051] , what is it?
[out] 70

###

Assignment: determine reported Selectivity of chymase inhibitors: DPPIV for the given compounds.
- system-tested: DPPIV (Homo sapiens, UniProt P27487)
- Sequence (P27487 whole entry, species assumed): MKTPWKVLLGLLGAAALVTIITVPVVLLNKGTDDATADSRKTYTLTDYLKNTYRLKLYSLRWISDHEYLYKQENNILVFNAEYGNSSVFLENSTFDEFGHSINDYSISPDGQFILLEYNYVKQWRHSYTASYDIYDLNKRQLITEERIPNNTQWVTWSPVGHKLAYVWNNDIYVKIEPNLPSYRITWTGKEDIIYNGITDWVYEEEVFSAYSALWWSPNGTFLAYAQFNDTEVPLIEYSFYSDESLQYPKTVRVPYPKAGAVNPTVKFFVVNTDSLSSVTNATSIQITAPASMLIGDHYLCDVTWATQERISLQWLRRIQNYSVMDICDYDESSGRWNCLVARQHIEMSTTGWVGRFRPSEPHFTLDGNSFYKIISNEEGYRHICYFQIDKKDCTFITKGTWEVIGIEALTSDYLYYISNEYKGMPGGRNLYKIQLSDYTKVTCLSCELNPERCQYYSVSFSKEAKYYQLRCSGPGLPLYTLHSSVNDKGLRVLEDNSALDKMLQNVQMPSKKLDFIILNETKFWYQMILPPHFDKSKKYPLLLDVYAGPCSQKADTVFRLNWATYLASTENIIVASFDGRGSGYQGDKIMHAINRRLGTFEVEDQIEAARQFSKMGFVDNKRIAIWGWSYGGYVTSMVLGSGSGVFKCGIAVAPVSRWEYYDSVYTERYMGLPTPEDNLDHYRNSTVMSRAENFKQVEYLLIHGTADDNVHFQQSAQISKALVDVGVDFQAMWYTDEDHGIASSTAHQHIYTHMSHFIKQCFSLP
- measurement-notes: Selectivity of chymase inhibitors against DPPIV
- Assay type: biochemical
- study-conditions: ratio of Ki enzyme/Ki chymase

[in] Selectivity of chymase inhibitors: DPPIV for `Cc1cccc(CN(c2cccc(Cl)c2)S(=O)(=O)/C=C/c2cccc(Cl)c2)c1` ?
[out] 170

[in] Same question for `O=S(=O)(/C=C/c1cccc(Cl)c1)N(Cc1ccc(Cl)c(Cl)c1)c1cccc(Cl)c1` please.
[out] 16

[in] Quick one: O=S(=O)(/C=C/c1cccc(Br)c1)N(Cc1ccsc1)c1cccc(Cl)c1 [ef-rs-03-039-P1]
[out] 17

[in] Another: `O=S(=O)(/C=C/c1cccc(Cl)c1)N(Cc1ccccc1)c1cccc(Cl)c1`
[out] >100

###

- system-tested: Thrombin (Homo sapiens)
- measurement-notes: Selectivity of chymase inhibitors against thrombin
- Assay type: biochemical
- study-conditions: ratio of Ki enzyme/Ki chymase
- Procedure: As provided in Table 1, hereinabove in Example 2, selectivity was tested by measuring the inhibitory activity of ef-rs-03-075 and analogs against other serine proteases, including thrombin, trypsin, and tryrptase.
test-readout: Selectivity of chymase inhibitors: Thrombin
Write no unit; give the number alone.

[in] I am curious: what Selectivity of chymase inhibitors: Thrombin value has been reported for O=S(=O)(/C=C/c1cccc(Cl)c1)N(Cc1cccc(Br)c1)c1cccc(Cl)c1 [ef-rs-08-050] ?
[out] 45

[in] Now give it for O=S(=O)(/C=C/c1cccc(Cl)c1)N(Cc1ccc(Cl)cc1)c1cccc(Cl)c1 [ef-rs-08-056] too.
[out] 20

###

- system-tested: Tryptase (Homo sapiens, UniProt Q15661)
- Sequence (Q15661 31-275): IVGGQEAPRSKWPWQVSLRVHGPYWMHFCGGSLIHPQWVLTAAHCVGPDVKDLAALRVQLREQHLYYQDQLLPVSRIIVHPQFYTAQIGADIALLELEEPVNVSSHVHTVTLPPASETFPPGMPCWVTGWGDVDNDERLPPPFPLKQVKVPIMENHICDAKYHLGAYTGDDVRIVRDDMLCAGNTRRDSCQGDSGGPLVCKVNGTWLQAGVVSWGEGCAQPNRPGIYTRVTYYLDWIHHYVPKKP
- measurement-notes: Selectivity of chymase inhibitors against tryptase
- Format: biochemical
- study-conditions: ratio of Ki enzyme/Ki chymase
Would you mind telling me the reported Selectivity of chymase inhibitors: Tryptase of each entry?

[in] Returns the measured Selectivity of chymase inhibitors: Tryptase for the input molecule. Input: `O=S(=O)(/C=C/c1cccc(Cl)c1)N(Cc1cccc(Cl)c1)c1cccc(OCc2cccc(Cl)c2)c1`
[out] >100

[in] Note, next up: `Cc1cccc(CN(c2cccc(Cl)c2)S(=O)(=O)/C=C/c2cccc(Cl)c2)c1`
[out] >350

[in] Now the same for `O=S(=O)(/C=C/c1cccc(Cl)c1)N(Cc1cccc(Br)c1)c1cccc(Cl)c1`
[out] >320

###

- system-tested: human chymase (Homo sapiens, UniProt P23946)
- Construct: In its active form within the secretory granules of mast cells, human chymase contains 226 amino acid residues
- Sequence (P23946 22-247): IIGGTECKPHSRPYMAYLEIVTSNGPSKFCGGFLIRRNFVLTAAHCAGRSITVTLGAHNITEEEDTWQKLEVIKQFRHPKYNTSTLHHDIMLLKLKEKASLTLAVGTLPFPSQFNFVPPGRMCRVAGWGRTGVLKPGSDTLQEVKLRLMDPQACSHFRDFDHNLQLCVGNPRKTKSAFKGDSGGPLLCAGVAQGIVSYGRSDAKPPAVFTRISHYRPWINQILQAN
- measurement-notes: Inhibition of chymase (Ki; Lineweaver-Burk double reciprocal plots)
- Format: biochemical
- study-conditions: read-out: Chymase Ki
test-readout: pKi
Hey, just a heads up that pKi is the negative log base 10 of the concentration in molar.

[in] Report pKi for O=S(=O)(/C=C/c1cccc(Br)c1)N(Cc1ccsc1)c1cccc(Cl)c1 [ef-rs-03-039-P1] please.
[out] 5.87

[in] Further, for `O=S(=O)(/C=C/c1cccc(Cl)c1)N(Cc1cccc(Cl)c1)c1cccc(OCc2cccc(Cl)c2)c1` ?
[out] 6.01

[in] Same read-out for O=S(=O)(/C=C/c1cccc(Cl)c1)N(Cc1ccsc1)c1cccc(Cl)c1 [ef-rs-03-038-P1] ?
[out] 5.80

[in] Do the same for `O=S(=O)(/C=C/c1cccc(Cl)c1)N(Cc1cccc(F)c1)c1cccc(Cl)c1` please
[out] 5.92

[in] Same read-out for `O=S(=O)(/C=C/c1cccc(Cl)c1)N(Cc1ccc(Cl)cc1)c1cccc(Cl)c1` ?
[out] 5.90

[in] Query `O=S(=O)(/C=C/c1cccc(Cl)c1)N(Cc1cccc(Cl)c1)c1cccc(Cl)c1` next
[out] 6.02

[in] Further, for `O=S(=O)(/C=C/c1cccc(Cl)c1)N(Cc1ccccc1)c1cccc(Cl)c1` ?
[out] 5.88

[in] Thanks! And `O=S(=O)(/C=C/c1cccc(Cl)c1)N(Cc1ccc(Cl)c(Cl)c1)c1cccc(Cl)c1` ?
[out] 6.04

[in] Moving on to the next compound: O=S(=O)(/C=C/c1cccc(Br)c1)N(Cc1ccccc1)c1cccc(Cl)c1 [ef-rs-03-015-P2]
[out] 5.80

[in] What do you get for `O=S(=O)(/C=C/c1cccc(Cl)c1)N(Cc1cccc(Br)c1)c1cccc(Cl)c1` ?
[out] 5.91

[in] Another: `Cc1cccc(CN(c2cccc(Cl)c2)S(=O)(=O)/C=C/c2cccc(Cl)c2)c1`
[out] 5.95

###

- system-tested: human chymase (Homo sapiens)
- Construct: In its active form within the secretory granules of mast cells, human chymase contains 226 amino acid residues
- measurement-notes: Inhibition of chymase (Ki; Lineweaver-Burk double reciprocal plots)
- Format: biochemical
- study-conditions: value given in the description text as 'high affinity'; read-out: affinity
test-readout: Ki

[in] So what does the record say about Ki for O=S(=O)(/C=C/c1cccc(Cl)c1)N(Cc1cccc(Cl)c1)c1cccc(Cl)c1 [ef-rs-03-075] ?
[out] 544 nM

###

- system-tested: Thrombin (Homo sapiens, UniProt P00734)
- measurement-notes: Selectivity of chymase inhibitors against thrombin
- Format: biochemical
- study-conditions: ratio of Ki enzyme/Ki chymase
test-readout: Selectivity of chymase inhibitors: Thrombin

[in] Notebook entry, Thrombin (Homo sapiens, UniProt P00734) assay: Selectivity of chymase inhibitors: Thrombin of O=S(=O)(/C=C/c1cccc(Cl)c1)N(Cc1ccccc1)c1cccc(Cl)c1 [ef-rs-03-019-P4] = ?
[out] >200

[in] Next: O=S(=O)(/C=C/c1cccc(Cl)c1)N(Cc1cccc(F)c1)c1cccc(Cl)c1 [ef-rs-08-057]
[out] >50

[in] Again, but for O=S(=O)(/C=C/c1cccc(Cl)c1)N(Cc1ccsc1)c1cccc(Cl)c1 [ef-rs-03-038-P1]
[out] >60

[in] Could you do the same for Cc1cccc(CN(c2cccc(Cl)c2)S(=O)(=O)/C=C/c2cccc(Cl)c2)c1 [ef-rs-08-049] , please?
[out] 13

###

Answer each item with its documented Selectivity of chymase inhibitors: Tryptase.
- system-tested: Tryptase (Homo sapiens)
- measurement-notes: Selectivity of chymase inhibitors against tryptase
- Type: biochemical
- study-conditions: ratio of Ki enzyme/Ki chymase

[in] What value of measured Selectivity of chymase inhibitors: Tryptase is listed for `O=S(=O)(/C=C/c1cccc(Cl)c1)N(Cc1cccc(F)c1)c1cccc(Cl)c1` ?
[out] >80

[in] Likewise for O=S(=O)(/C=C/c1cccc(Cl)c1)N(Cc1ccsc1)c1cccc(Cl)c1 [ef-rs-03-038-P1] ?
[out] >240

[in] Next: `O=S(=O)(/C=C/c1cccc(Cl)c1)N(Cc1cccc(Cl)c1)c1cccc(Cl)c1`
[out] >410

[in] Ok, now O=S(=O)(/C=C/c1cccc(Br)c1)N(Cc1ccsc1)c1cccc(Cl)c1 [ef-rs-03-039-P1]
[out] >310

[in] What do you have for O=S(=O)(/C=C/c1cccc(Br)c1)N(Cc1ccccc1)c1cccc(Cl)c1 [ef-rs-03-015-P2] ?
[out] >260

[in] Same thing, different compound: `O=S(=O)(/C=C/c1cccc(Cl)c1)N(Cc1ccccc1)c1cccc(Cl)c1`
[out] >275

[in] Could you do the same for `O=S(=O)(/C=C/c1cccc(Cl)c1)N(Cc1ccc(Cl)cc1)c1cccc(Cl)c1` , please?
[out] >310

[in] And then `O=S(=O)(/C=C/c1cccc(Cl)c1)N(Cc1ccc(Cl)c(Cl)c1)c1cccc(Cl)c1` , what is it?
[out] >110
